Hey, just so you know, these numbers are from patent US5637609A.

pIC50: −log10 of the molar value. Counter-ions that a name gives are not always drawn.
// human D3 dopamine receptors (Homo sapiens) pIC50 records

CCN(Cc1ccc(-c2cc(S(=O)(=O)CC)ccc2OC)[nH]1)C1CCCc2ccccc21 (centres unmarked) [Example 1, hydrochloride] | > 8.30

As a next step, examine the molecule that follows.
Reported pIC50 (human D3 dopamine receptors (Homo sapiens)) for entry CCN(Cc1ccc(-c2cc(S(=O)(=O)CC)ccc2OC)[nH]1)C1CCc2ccccc21 (centres unmarked) [Example 2, hydrochloride] is > 8.30
